assay: osmotic lysis modulators in infected erythrocytes, primary screen, PSAC antagonist project, cell-based, P. falciparum Indochina, OD700, 3 h (AID 1156); conditions: higher = more signal, called active from +8 up or from −8 down
PROPERTY LABEL: z-score
Please respond with just the number, no unit label.

Check out these entries, answers already filled in.
[
  {
    "COMPOUND": "C=C(CCCC)C(=O)CC[C@H](OC(C)=O)c1ccc(OCCO)cc1",
    "READOUT NUMBER": 1.61
  },
  {
    "COMPOUND": "COC(=O)[C@@]1(Cc2ccccc2CN=[N+]=[N-])N=C(c2ccc(OCCCO)cc2)O[C@H]1c1ccccc1",
    "READOUT NUMBER": 0.882
  },
  {
    "COMPOUND": "COCCOC(=O)N1C(=O)[C@@]2(c3cc(C#CCNC(N)=O)ccc31)[C@H](c1ccc(OCCO)cc1)N1[C@H](c3ccccc3)[C@H](c3ccccc3)OC(=O)[C@H]1[C@@H]2C(=O)NC[C@H](O)c1ccccc1",
    "READOUT NUMBER": 0.624
  },
  {
    "COMPOUND": "CCCCCN1CC=CC23O[C@@H]4C=CCOC(=O)[C@@H]4[C@H]2C(=O)N(CCO)[C@@H]3C1=O (stereo partly specified)",
    "READOUT NUMBER": 0.266
  },
  {
    "COMPOUND": "COCCOC(=O)N1C(=O)[C@@]2(c3cc(C#CC4(O)CCCCCC4)ccc31)[C@H](c1ccc(OCCO)cc1)N1[C@H](c3ccccc3)[C@H](c3ccccc3)OC(=O)[C@H]1[C@@H]2C(=O)Nc1nc2ccccc2s1",
    "READOUT NUMBER": 0.834
  },
  {
    "COMPOUND": "CC(C)C[C@@H]1NC(=O)[C@H]2C[C@@H](C(=O)NCCCCCN)[C@@H](c3cccc(OCCO)c3)N2C1=O",
    "READOUT NUMBER": 2.27
  },
  {
    "COMPOUND": "COc1ccc(C(=O)Nc2cccc(CN3C(=O)[C@@]4(O[C@@H](CC(=O)N(CCO)Cc5ccccc5)[C@H]([Si](C)(C)c5ccc(OC)cc5)[C@H]4C)c4ccccc43)c2)cc1",
    "READOUT NUMBER": -0.39
  },
  {
    "COMPOUND": "COC(=O)[C@@]1(Cc2ccccc2CN=[N+]=[N-])N=C(c2ccc(OCCCO)cc2)O[C@H]1c1ccccc1CN=[N+]=[N-]",
    "READOUT NUMBER": 0.912
  }
]

Request: Returns the measured z-score for the input compound. Input: "CCOC(=O)C[C@H]1[C@H](OC(=O)c2ccc(C(=O)c3ccccc3)cc2)[C@@H](NC(=O)CC(C)C)c2cc(OCCCO)ccc2N1C(=O)Cc1ccc(OC)cc1"
Result: -0.0495

Request: Returns the measured z-score for the input compound. Input: "COC(=O)C(CC#Cc1ccc2c(c1)[C@]1(C(=O)N2)[C@H](c2ccc(OCCO)cc2)N2[C@H](c3ccccc3)[C@H](c3ccccc3)OC(=O)[C@H]2[C@@H]1C(=O)N1CCN(c2ncccn2)CC1)C(=O)OC"
Result: 0.257

Request: Returns the measured z-score for the input compound. Input: "CN(C)CCCCCCNC(=O)[C@@H]1C[C@@H]2C(=O)N[C@@H](CCCCN)C(=O)N2[C@@H]1c1ccc(O)cc1"
Result: 2.87
